# assayNotes: qHTS assay to test for compound auto fluorescence at 535 nm (green) in HEK293 cell free culture (AID 720682); note: % is set by controls: 0 for no effect and ±100 for the full control effect
# cond: cell-free medium, green autofluorescence 485/535 nm, active compounds read high; series mostly up to 91.3 µM
Active and inactive are the calls of the source. Calls come from the whole dose curve; as a rule, active = well fitted curve in the direction sought with a large enough effect in the repeat runs; inconclusive = weak or mixed curves; inactive = flat fitted curve, though single readings scatter.
propertyName: activity change

Solved cases (4 shown):
compound	activity change
C/C=C\C/C=C/CCCCCCCCOC(C)=O	inactive
c1csc(SSc2cccs2)c1	inactive
NCCNCCO	inactive
CC(=O)NC1(c2cccc(F)c2)CCN(CC[C@@]2(c3ccc(Cl)c(Cl)c3)CN(c3ccccc3)C(=O)CO2)CC1	inactive

(Q) Specify reported activity change for the compound shown: Oc1c(I)cc(I)c2cccnc12
(A) inactive

(Q) Note activity change for the compound shown: OC(CCN1CCCC1)(c1ccccc1)C1CCCCC1 (configuration not stated)
(A) 0.0202% [at 18.6 µM] (inactive)

(Q) Output measured activity change for this item: N#CCCN(CCO)CCO
(A) inactive

(Q) Read off the recorded activity change for CC(C)(O)c1ccc(CNC(=O)c2cccnc2Oc2ccc3nonc3c2)cc1
(A) inactive

Source: PubChem BioAssay (Tox21)
